Where these numbers come from: patent US6599506B1

Here the recorded Inhibition of T-cell Proliferation (%) in mixed lymphocyte reaction, peptide at 500 µM is given for each entry.
# ASSAY_SYSTEM: intracellular adhesion molecule (ICAM-1; CD54) (UniProt P05362 28-532, limits assumed)
# Sequence (P05362 28-532 limits assumed): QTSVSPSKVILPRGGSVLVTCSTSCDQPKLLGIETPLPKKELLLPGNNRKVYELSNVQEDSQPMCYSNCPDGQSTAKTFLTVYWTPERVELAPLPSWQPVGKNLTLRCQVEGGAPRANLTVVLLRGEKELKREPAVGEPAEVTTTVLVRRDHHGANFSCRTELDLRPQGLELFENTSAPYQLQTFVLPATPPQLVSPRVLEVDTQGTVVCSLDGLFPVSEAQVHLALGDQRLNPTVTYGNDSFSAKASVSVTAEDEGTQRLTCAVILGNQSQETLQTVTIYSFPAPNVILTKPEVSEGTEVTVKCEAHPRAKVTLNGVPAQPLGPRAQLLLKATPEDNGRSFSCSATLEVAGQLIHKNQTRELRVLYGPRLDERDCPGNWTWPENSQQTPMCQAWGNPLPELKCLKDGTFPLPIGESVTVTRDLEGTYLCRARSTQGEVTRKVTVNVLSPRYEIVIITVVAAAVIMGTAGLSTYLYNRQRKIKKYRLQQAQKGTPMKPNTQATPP
# MEASUREMENT_NOTES: cell-based or functional assay
Square brackets hold non-standard residues; d marks the D form.
Answer with the figure and its unit, nothing else.

// solved cases for Inhibition of T-cell Proliferation (%) in mixed lymphocyte reaction, peptide at 500 µM follow
{"columns": ["BINDER", "RESULT"],
 "data": [
  ["H-[dD][dL][dS][dY][dS][dL][dD][dD][dL][dR]-OH (SMILES CC(C)C[C@@H](NC(=O)[C@H](N)CC(=O)O)C(=O)N[C@H](CO)C(=O)N[C@H](Cc1ccc(O)cc1)C(=O)N[C@H](CO)C(=O)N[C@H](CC(C)C)C(=O)N[C@H](CC(=O)O)C(=O)N[C@H](CC(=O)O)C(=O)N[C@H](CC(C)C)C(=O)N[C@H](CCCNC(=N)N)C(=O)O) [D-LBEL]", "56.5%"],
  ["H-GG[dD][dL][dL][dR][dA][dL][dN][dE]-OH (SMILES CC(C)C[C@@H](NC(=O)[C@@H](C)NC(=O)[C@@H](CCCNC(=N)N)NC(=O)[C@@H](CC(C)C)NC(=O)[C@@H](CC(C)C)NC(=O)[C@@H](CC(=O)O)NC(=O)CNC(=O)CN)C(=O)N[C@H](CC(N)=O)C(=O)N[C@H](CCC(=O)O)C(=O)O) [D-LBER]", "-90.5%"]
]}

--- query ---
Exercise: Fill blank: measured Inhibition of T-cell Proliferation (%) in mixed lymphocyte reaction, peptide at 500 µM of the binder DLSYSLDDLR [LBEL (linear L-peptide)] is ____.
Key: 24.8%
